- Tgt: Variant PPO Enzyme L397E, F420M (Amaranthus PPO2) (Amaranthus tuberculatus, UniProt Q0NZW9, F420M/L397E)
pIC50: −log10 of the molar value.
Measured metric: pIC50

> print(dat)
                  compound.structure.string  experimental.value
1  Cn1c(C(F)(F)F)cc(=O)n(-c2nc(Oc3ccccc3OCC(=O)NS(C)(=O)=O)c(Cl)cc2F)c1=O                5.19

====

- Tgt: Variant PPO Enzyme R128A, F420M (Amaranthus PPO2) (Amaranthus tuberculatus, UniProt Q0NZW9, F420M/R128A)
- Sequence (Q0NZW9 1-534 F420M/R128A): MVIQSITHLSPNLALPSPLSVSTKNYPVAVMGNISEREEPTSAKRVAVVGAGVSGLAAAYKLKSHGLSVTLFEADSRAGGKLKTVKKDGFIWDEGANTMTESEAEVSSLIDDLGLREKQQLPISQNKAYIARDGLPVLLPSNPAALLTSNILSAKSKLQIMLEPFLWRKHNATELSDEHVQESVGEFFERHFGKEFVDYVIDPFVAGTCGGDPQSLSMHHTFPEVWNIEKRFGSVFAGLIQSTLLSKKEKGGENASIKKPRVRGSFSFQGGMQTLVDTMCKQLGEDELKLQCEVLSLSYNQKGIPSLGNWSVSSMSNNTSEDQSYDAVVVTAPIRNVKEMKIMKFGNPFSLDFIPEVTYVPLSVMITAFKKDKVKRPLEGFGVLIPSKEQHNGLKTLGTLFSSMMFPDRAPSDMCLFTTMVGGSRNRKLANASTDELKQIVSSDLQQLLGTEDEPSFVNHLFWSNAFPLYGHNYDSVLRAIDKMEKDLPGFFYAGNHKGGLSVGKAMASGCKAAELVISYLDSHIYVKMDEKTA
pIC50: −log10 of the molar value.
Form field: pIC50 (one value per entry).
Measured metric: pIC50

> print(dat)
                  compound.structure.string  experimental.value
1  COCCOC(=O)COc1ncccc1Oc1nc(-n2c(=O)cc(C(F)(F)F)n(C)c2=O)c(F)cc1Cl                6.90
2  C=CCOC(=O)COc1ncccc1Oc1nc(-n2c(=O)cc(C(F)(F)F)n(C)c2=O)c(F)cc1Cl                7.04
3  CCOC(=O)COc1ccccc1Oc1nc(-n2c(=O)c(C)c(C(F)(F)F)n(C)c2=O)c(F)cc1Cl                6.94
4  C#CCOC(=O)COc1ncccc1Oc1nc(-n2c(=O)cc(C(F)(F)F)n(C)c2=O)c(F)cc1Cl                6.80

Source: patent US12123010B2
